Hi there, I'd appreciate the recorded abundance fitness for every entry that follows.
B1: Transcription factor SOX-4, residues 60 to 127; numbered along this chain, Q06945 (parent)
chain: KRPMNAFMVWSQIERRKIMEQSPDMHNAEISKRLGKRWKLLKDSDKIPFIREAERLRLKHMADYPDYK

variants of: B1; assay: abundance fitness (aPCA) (normalised: wild type 0, dead -1); higher = more abundant; growth selection in yeast, the domain comes from the species named; conditions: Homo sapiens
Numbers only.

G35Q
0.302
E54R
-0.469
S44Y
-0.687
H60S
0.041
S22E
-0.027
P48C
-0.504
Q21S
-0.163
P48M
-0.168
L56W
-0.542
M25K
-0.216

Okay, here is my list. What is abundance fitness for each of these?
1. H26S
2. S31V
3. G35H
4. Y64M
5. K36I
6. K68M

Response given:
[0.291, -0.021, 0.178, -0.061, 0.143, -0.23]

Quick batch: abundance fitness for everything below.
1. R57G
2. H60P
3. K59R
4. D66Y
5. M61Q
6. D66G

Response given:
1: -0.247; 2: -0.045; 3: -0.126; 4: -0.537; 5: 0.092; 6: -0.08
